// data source = patent US20080166364A1

Target: T1, human angiopoietin-2 protein (human, UniProt O15123 19-496)
T1 construct: bought; also called Ang-2; Ang2
T1 sequence (looked up): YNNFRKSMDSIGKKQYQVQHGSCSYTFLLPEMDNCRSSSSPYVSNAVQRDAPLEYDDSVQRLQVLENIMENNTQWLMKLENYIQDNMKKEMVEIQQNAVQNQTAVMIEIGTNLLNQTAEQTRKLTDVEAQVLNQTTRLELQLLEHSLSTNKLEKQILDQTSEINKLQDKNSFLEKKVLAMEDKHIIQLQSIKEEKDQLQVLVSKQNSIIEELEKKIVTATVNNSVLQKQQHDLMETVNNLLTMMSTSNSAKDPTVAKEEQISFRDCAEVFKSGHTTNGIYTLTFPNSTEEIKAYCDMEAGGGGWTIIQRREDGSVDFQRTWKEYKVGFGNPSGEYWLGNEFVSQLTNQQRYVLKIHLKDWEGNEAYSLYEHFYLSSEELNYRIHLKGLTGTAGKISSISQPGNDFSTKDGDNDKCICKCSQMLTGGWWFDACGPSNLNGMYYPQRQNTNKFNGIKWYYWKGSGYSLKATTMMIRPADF
Test: competitive ELISA, coated Ang-2, 0.25 nM hTie-2-Fc; T form
pIC50: −log10 of the molar value. Non-standard residues stand in square brackets, D forms with d. Phe(4-COOH) = N[C@@H](Cc1ccc(C(=O)O)cc1)C(=O)O; 0P linker = not defined here; acyl = not defined here
assay_readout: pIC50

Here is how some binders turned out for pIC50.
QXYQXLDELDXTLYDQFMLQQG (not fully specified; N-term acyl cap; C-term NH2 cap; AcK at 2; DHP at 5 (printed D(HP)); 0P linker on K11) [Compound 34 (T): targeting peptide plus 0P linker] :: 6.65
QXYQPLDELDXTLFDQFMLQQG (not fully specified; N-term acyl cap; C-term NH2 cap; AcK at 2; 0P linker on K11) [Compound 44 (T): targeting peptide plus 0P linker] :: 7.43
QNYQPLDELDXTLYDQFMLQQG (not fully specified; N-term acyl cap; C-term NH2 cap; 4P linker on K11) [Compound 25 (T): targeting peptide plus 4P linker] :: 6.52
QXYQPLDELDXTLYDQFMLQQG (N-term DFB (difluorobenzoyl) cap; C-term NH2 cap; AcK at 2; 0P linker on K11) [Compound 50 (T): targeting peptide plus 0P linker] :: 7.48
QXYQPLDELDXTLYDQFMLQQG (N-term acyl cap; C-term NH2 cap; AcK at 2; Dab at 11 carrying the 0P linker) [Compound 54 (T): targeting peptide plus 0P linker] :: 6.54

(1) QHYQPLDELDXTLYDQFMLQQG (not fully specified; N-term acyl cap; C-term NH2 cap; 0P linker on K11) [Compound 60 (T): targeting peptide plus 0P linker]
(2) acyl-QK(Ac)YQPLDEK(Ac)DK(0P linker)TL[Phe(4-COOH)]DQFMLQQG-NH2 (reading uncertain; also: printed as Q(AcK)Y QPL DE(AcK) DK(0P)T L(CF)D QFM LQQ G) [Compound 62 (T): targeting peptide plus 0P linker]
*Q* Please state the entry with greater pIC50 among 1 and 2 . Respond using the label that marks the chosen record.
*A* 1
